Value source: patent EP4678629A1

Reported values of PDI for individual entries
test: Size and polydispersity index (PDI) of the lipid nanoparticle by dynamic light scattering; assay type: physicochemical; details: LNP encapsulating eGFP mRNA, ionizable lipid/DOPE/cholesterol/DMG-PEG2000 50/10/48.25/1.25 mol%, N/P 12
measured-attribute: PDI

molecule	endpoint-value
CCCCC/C=C\C/C=C\CCCCCCCCOC(=O)CCCN(CCCO)CCCN(CCCC(=O)OCCCCCCCC/C=C\C/C=C\CCCCC)CCCC(=O)OCCCCCCCC/C=C\C/C=C\CCCCC [Example 108]	0.13
CC/C=C\CCCCCOC(=O)CCCCCCCN(CCO)CCCN(CCCCCCCC(=O)OCCCCC/C=C\CC)CCCCCCCC(=O)OCCCCC/C=C\CC [Example 8]	0.21
CCCCCCCCCCCCCOC(=O)CCCN(CCCO)CCCN(CCCC(=O)OCCCCCCCCCCCCC)CCCC(=O)OCCCCCCCCCCCCC [Example 63]	0.15
CCCCCC/C=C\COC(=O)CCCN(CCO)CCCN(CCCC(=O)OC/C=C\CCCCCC)CCCC(=O)OC/C=C\CCCCCC [Example 16]	0.18
CCCCCCCCCCCCCOC(=O)CCCCCCN(CCCCO)CCCN(CCCCCCC(=O)OCCCCCCCCCCCCC)CCCCCCC(=O)OCCCCCCCCCCCCC [Example 35]	0.12
CCCCCCCCCCCCCOC(=O)CN(CCCCO)CCCN(CC(=O)OCCCCCCCCCCCCC)CC(=O)OCCCCCCCCCCCCC [Example 78]	53.66

====

Reported values of PDI for individual entries
assay: Size and polydispersity index (PDI) of the lipid nanoparticle by dynamic light scattering; assay type: physicochemical; details: LNP encapsulating eGFP mRNA, ionizable lipid/DOPE/cholesterol/DMG-PEG2000 50/10/48.25/1.25 mol%, N/P 12

compound	PDI
CCCCCCCCCCCCOC(=O)CCCN(CCO)CCCN(CCCC(=O)OCCCCCCCCCCCC)CCCC(=O)OCCCCCCCCCCCC	0.19
CCCCCCCCCCCCCCOC(=O)CCCCCN(CCO)CCCN(CCCCCC(=O)OCCCCCCCCCCCCCC)CCCCCC(=O)OCCCCCCCCCCCCCC	0.09
CCCCCCCCCCCCCOC(=O)CCCCCN(CCCO)CCCN(CCCCCC(=O)OCCCCCCCCCCCCC)CCCCCC(=O)OCCCCCCCCCCCCC	0.09
CCCCCCCCCCCOC(=O)CCCCCCCN(CCCO)CCCN(CCCCCCCC(=O)OCCCCCCCCCCC)CCCCCCCC(=O)OCCCCCCCCCCC	0.25
CCCCCCCCCCCCCOC(=O)CCCCN(CCCCO)CCCN(CCCCC(=O)OCCCCCCCCCCCCC)CCCCC(=O)OCCCCCCCCCCCCC	0.13
CCCCCCCCCCCOC(=O)CCCN(CCO)CCCN(CCCC(=O)OCCCCCCCCCCC)CCCC(=O)OCCCCCCCCCCC	0.22
CC(C)=CCC/C(C)=C/COC(=O)CCCCCCCN(CCO)CCCN(CCCCCCCC(=O)OC/C=C(\C)CCC=C(C)C)CCCCCCCC(=O)OC/C=C(\C)CCC=C(C)C	0.12
CCCCCCCCCCCCCOC(=O)CCCCCN(CCO)CCCN(CCCCCC(=O)OCCCCCCCCCCCCC)CCCCCC(=O)OCCCCCCCCCCCCC	0.09
CCCCCCCCCCCCCOC(=O)CCCN(CCCO)CCCCN(CCCC(=O)OCCCCCCCCCCCCC)CCCC(=O)OCCCCCCCCCCCCC [Example 85]	0.10
CCCCCCCCCCCCOC(=O)CCCCCCCN(CCCCO)CCCN(CCCCCCCC(=O)OCCCCCCCCCCCC)CCCCCCCC(=O)OCCCCCCCCCCCC	0.17
CCCCCCCCCCCCOC(=O)CCCCCCN(CCCCO)CCCN(CCCCCCC(=O)OCCCCCCCCCCCC)CCCCCCC(=O)OCCCCCCCCCCCC	0.15
CCCCC/C=C\C/C=C\CCCCCCCCOC(=O)CCCN(CCCO)CCCCN(CCCC(=O)OCCCCCCCC/C=C\C/C=C\CCCCC)CCCC(=O)OCCCCCCCC/C=C\C/C=C\CCCCC [Example 89]	0.09
CCCCCCCCCCCOC(=O)CCCN(CCO)CCCCN(CCCC(=O)OCCCCCCCCCCC)CCCC(=O)OCCCCCCCCCCC	0.12
